# TEST SYSTEM: PIK3CG (human)
PROPERTY LABEL: IC50 (nM)
Write it as a number; the unit nM goes unstated.

The compound COc1cc(-c2ccc3nc(C)c(-c4cnc(N)c(C(F)(F)F)c4)n3n2)ccc1OC1CCNCC1 on PIK3CG (human): IC50 was 1180

###

# TEST SYSTEM: UniProt P42336
# Sequence (P42336 whole entry, looked up): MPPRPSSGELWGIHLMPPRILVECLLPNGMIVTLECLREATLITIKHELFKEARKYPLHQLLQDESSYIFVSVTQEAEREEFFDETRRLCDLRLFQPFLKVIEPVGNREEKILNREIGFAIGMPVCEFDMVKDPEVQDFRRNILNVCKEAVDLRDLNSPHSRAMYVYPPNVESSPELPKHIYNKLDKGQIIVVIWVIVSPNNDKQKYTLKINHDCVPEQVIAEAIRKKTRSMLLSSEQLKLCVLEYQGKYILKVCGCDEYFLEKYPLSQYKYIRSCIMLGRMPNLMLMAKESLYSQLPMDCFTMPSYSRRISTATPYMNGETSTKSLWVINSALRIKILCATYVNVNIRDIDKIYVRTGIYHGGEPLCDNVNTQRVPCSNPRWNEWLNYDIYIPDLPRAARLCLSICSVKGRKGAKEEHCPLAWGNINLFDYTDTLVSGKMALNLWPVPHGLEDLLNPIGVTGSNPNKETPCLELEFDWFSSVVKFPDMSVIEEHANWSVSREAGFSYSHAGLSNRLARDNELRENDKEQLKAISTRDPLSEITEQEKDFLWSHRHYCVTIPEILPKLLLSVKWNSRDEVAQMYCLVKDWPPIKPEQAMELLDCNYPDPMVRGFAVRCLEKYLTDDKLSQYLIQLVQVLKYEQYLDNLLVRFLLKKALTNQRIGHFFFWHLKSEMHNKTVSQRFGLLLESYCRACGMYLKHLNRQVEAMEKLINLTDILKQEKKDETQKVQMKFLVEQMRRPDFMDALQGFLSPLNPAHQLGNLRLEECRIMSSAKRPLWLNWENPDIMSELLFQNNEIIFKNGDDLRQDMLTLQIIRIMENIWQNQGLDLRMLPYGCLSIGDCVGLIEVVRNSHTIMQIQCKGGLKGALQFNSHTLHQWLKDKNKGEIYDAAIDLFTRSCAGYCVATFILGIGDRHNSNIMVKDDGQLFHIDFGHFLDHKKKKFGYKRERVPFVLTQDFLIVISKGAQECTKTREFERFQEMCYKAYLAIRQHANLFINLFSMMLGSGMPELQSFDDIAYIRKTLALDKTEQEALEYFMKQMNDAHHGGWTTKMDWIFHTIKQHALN
Listing: IC50 of selected compounds
Write it as a number; the unit nM goes unstated.

Consider the reported IC50 for these compounds:
COc1ccc(-c2ccc3nc(C)c(-c4cccnc4)n3n2)cc1OC 59
COc1cccc(NC(=O)NCCCOc2ccc(-c3ccc4nc(C)c(-c5cnc(N)c(C(F)(F)F)c5)n4n3)cc2OC)c1 925

Please look at the following compound next.
In plain terms, COc1cc(-c2ccc3nc(C)c(-c4cnc(N)c(C(F)(F)F)c4)n3n2)ccc1OCCCNC(=O)c1ccc(F)c(F)c1 has a documented IC50 of 3560

# credit: the Kinase Knowledgebase extract (Sharma et al. 2016)
